Catalogue of PBM binding z-score values
Tested on: PPARg:RXRa DBDmut IVT, anti-RXR (DBD mutation: RXRa K156A/R161A, NR concentration 270 nM, RXRa partner concentration 90 nM)
Experiment: PBM binding z-score (relative to random genomic background probes); higher = stronger binding; sequences stand for … in GC…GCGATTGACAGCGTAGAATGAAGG

Before answering, review these 6 worked examples.
> print(dat)
                       query.sequence           value.kind  observed
1  ACTAGCAGGCCAAGGGTCACTTAAGATTAGTCCG  PBM binding z-score       1.3
2  AGTATGAGGTTACCAAAGATCAGGGAAACGCTTG  PBM binding z-score       1.3
3  CGTCCAAGCTCAAAGGTCAGTGAAGAGATGACGG  PBM binding z-score    0.0789
4  ACTAGCAGGCCAAGTTTGGGTCAATCAAACAAAG  PBM binding z-score     0.842
5  GCGACTGGGGCATCAGCAGTTTACCATAACTTAA  PBM binding z-score      3.71
6  AGAATGAGGTTAAGATCAGTGAAACAGAATACAT  PBM binding z-score      2.35

(Q) So what's the measured PBM binding z-score for this one? "AGTACAGGGTCATCGTAGGCCAGAGTACGCACAG"
(A) 1.41

(Q) So what's the measured PBM binding z-score for this one? "GTACCAAGGTGAATAGGTCGTGGATGAGTAGGCG"
(A) 2.1

(Q) So what's the measured PBM binding z-score for this one? "CCTATTAGTTTACCATAAGGGCAACCGAAGCTCG"
(A) 0.246

(Q) So what's the measured PBM binding z-score for this one? "ACTCGGAGGACAAAGGTCAAAGCTACGCCAGTGA"
(A) 1.44

(Q) So what's the measured PBM binding z-score for this one? "CTCGAAAGGTCGTGCTCAGGTGAGTATTCCAAAC"
(A) 0.897

(Q) So what's the measured PBM binding z-score for this one? "CCTGACAGGTGAAAGGTAACTCAGTCTGGTACGC"
(A) 2.33
